Tested on: eyes of allergic subjects challenged with allergen solution (birch, cat hair, cat dander)
Assay: Conjunctival allergen challenge (CAC), onset of action and duration of action study
Format: in vivo, human
Conditions: challenge 15 min after one drop; itching scale 0-4; timepoint 3 of 3, 5, 7 min post-challenge
Measurement Type: Mean Differences (Active-Placebo), 15 Min Itching, Timepoint 3

// worked examples, Mean Differences (Active-Placebo), 15 Min Itching, Timepoint 3 included
{"Compound": "CN(C)CCC(c1ccccc1)c1ccccn1 (stereo not shown)", "Value": "−2.17"}
{"Compound": "CN1CCC(=C2c3ccccc3CC(=O)c3sccc32)CC1", "Value": "−2.00"}

Item under review: c1ccc(CN(CC2=NCCN2)c2ccccc2)cc1 . Reported Mean Differences (Active-Placebo), 15 Min Itching, Timepoint 3?
−2.5

Note, next up: CN1CCCC(n2nc(Cc3ccc(Cl)cc3)c3ccccc3c2=O)CC1 (stereo not shown)
−2.5

###

Tested on: eyes of allergic subjects challenged with allergen solution (birch, cat hair, cat dander)
Assay: Conjunctival allergen challenge (CAC), onset of action and duration of action study
Type: in vivo, human
Conditions: challenge 15 min after one drop; redness scale 0-4; timepoint 1 of 10, 15, 20 min post-challenge
Measurement Type: Mean Differences (Active-Placebo), 15 Min Redness, Timepoint 1
Reply with just the number.

Item under review: c1ccc(CN(CC2=NCCN2)c2ccccc2)cc1 [Antazoline 0.5%, antazoline] . Reported Mean Differences (Active-Placebo), 15 Min Redness, Timepoint 1?
−0.83

Note, next up: CN1CCCC(n2nc(Cc3ccc(Cl)cc3)c3ccccc3c2=O)CC1 (stereo not shown) [Azelastine 0.05%, azelastine]
0

Note, next up: CN(C)CCC(c1ccccc1)c1ccccn1 (stereo not shown) [Pheniramine 0.5%, pheniramine]
−1.67

Note, next up: CN1CCC(=C2c3ccccc3CC(=O)c3sccc32)CC1 [Keto 0.05%, ketotifen]
−1.50

###

Test system: eyes of allergic subjects challenged with allergen solution (birch, cat hair, cat dander)
Assay: Conjunctival allergen challenge (CAC), onset of action and duration of action study
Format: in vivo, human
Conditions: challenge 15 min after one drop; itching scale 0-4; timepoint 1 of 3, 5, 7 min post-challenge
Measurement Type: Mean Differences (Active-Placebo), 15 Min Itching, Timepoint 1
Reply with just the number.

{"Molecule": "c1ccc(CN(CC2=NCCN2)c2ccccc2)cc1 [Antazoline 0.5%, antazoline]", "Value": "−2.33"}
{"Molecule": "CN(C)CCC(c1ccccc1)c1ccccn1 (stereo not shown) [Pheniramine 0.5%, pheniramine]", "Value": "−2.67"}
{"Molecule": "CN1CCCC(n2nc(Cc3ccc(Cl)cc3)c3ccccc3c2=O)CC1 (stereo not shown) [Azelastine 0.05%, azelastine]", "Value": "−2.5"}

Proceed to the following item.
Item under review: CN1CCC(=C2c3ccccc3CC(=O)c3sccc32)CC1 [Keto 0.05%, ketotifen] . Reported Mean Differences (Active-Placebo), 15 Min Itching, Timepoint 1?
−2.00

###

System: eyes of allergic subjects challenged with allergen solution (birch, cat hair, cat dander)
Assay: Conjunctival allergen challenge (CAC), onset of action and duration of action study
Type: in vivo, human
Conditions: challenge 15 min after one drop; redness scale 0-4; timepoint 2 of 10, 15, 20 min post-challenge
Measurement Type: Mean Differences (Active-Placebo), 15 Min Redness, Timepoint 2
Reply with just the number.

// worked examples, Mean Differences (Active-Placebo), 15 Min Redness, Timepoint 2 included
{"Compound": "c1ccc(CN(CC2=NCCN2)c2ccccc2)cc1", "Value": "−0.83"}
{"Compound": "CN1CCCC(n2nc(Cc3ccc(Cl)cc3)c3ccccc3c2=O)CC1 (stereo not shown)", "Value": 0}
{"Compound": "CN(C)CCC(c1ccccc1)c1ccccn1 (stereo not shown)", "Value": "−1.83"}

Proceed to the following item.
Item under review: CN1CCC(=C2c3ccccc3CC(=O)c3sccc32)CC1 . Reported Mean Differences (Active-Placebo), 15 Min Redness, Timepoint 2?
−1.17

Source of measurements: patent US20040198828A1
